- Assayed Target: GRK2 (Homo sapiens, UniProt P25098)
- Construct: purchased SignalChem A14-10G
- Assay Protocol: ADPGlo GRK2 Inhibition Assay (Example 8)
- Type: biochemical
- Measurement Conditions: Enzyme Assay A, ADPGlo (Example 8); read-out: A: Enzymatic GRK2: IC50 (nM) (Example 8)
# IC50 values compiled below
Your answer is read as nM, so omit the unit and give the number.

Please review the entries below; each comes with its answer.
Short answer for CCS(=O)(=O)c1ccc(CNC(=O)c2cccc(NCc3nnc(-c4ccncn4)n3C)c2)nc1 : IC50 was 100

Short answer for COc1cccc(C2(NC(=O)c3cccc(NCc4nnc(-c5ccncn5)n4C)c3)CC2)c1F : IC50 was 23

Continuing:
Short answer for COc1ccccc1CNC(=O)c1cccc(NCc2nnc(-c3ccncn3)n2C)c1 : IC50 was 20

Short answer for O=C(NCc1ccccn1)c1cccc(NCc2nnc(-c3ccncc3)[nH]2)c1 : IC50 was 36

Short answer for Cn1c(CNc2cccc(C(=O)N[C@H]3CCOc4ccc(C(F)(F)F)cc43)c2)nnc1-c1ccncn1 : IC50 was 834

Short answer for Cn1c(CNc2cccc(C(=O)N[C@@H]3CCOc4ccc(C(F)(F)F)cc43)c2)nnc1-c1ccncn1 : IC50 was 8.09

Short answer for O=C(NC1CCCn2ncnc21)c1cccc(NCc2nnc(-c3ccncc3)[nH]2)c1 (stereo not shown) : IC50 was 20

Short answer for Cc1nn(C)cc1CNC(=O)c1cccc(NCc2nnc(-c3ccncn3)n2C)c1 : IC50 was 19

Short answer for Cn1c(CNc2cccc(C(=O)NC(CCO)c3cccc(F)c3)c2)nnc1-c1ccncn1 (stereo not shown) : IC50 was 37

Short answer for Cc1nc(CNC(=O)c2cccc(NCc3nnc(-c4ccncn4)n3C)c2)cs1 [drawing 610] : IC50 was 9.8

Short answer for CCCn1c(CNc2cccc(C(=O)N[C@H]3COc4cc(F)ccc43)c2)nnc1-c1ccncn1 : IC50 was 10.5

Short answer for Cc1cccc2nnc(CNC(=O)c3cccc(NCc4nnc(-c5ccncn5)n4C)c3)n12 : IC50 was 0.79

Short answer for COc1ccc2c(c1)OCC[C@H]2NC(=O)c1cccc(NCc2nnc(-c3ccncn3)n2C)c1 : IC50 was 60.9

Short answer for CCn1cnnc1CNC(=O)c1cccc(NCc2nnc(-c3ccncn3)n2C)c1 : IC50 was 72

Short answer for Cn1c(CNc2cccc(C(=O)NCc3ccc(F)cc3)c2)nnc1-c1ccncn1 : IC50 was 19

Short answer for C#Cc1cc(CNC(=O)c2cccc(NCc3nnc(-c4ccncc4)[nH]3)c2)cc(OS(=O)(=O)F)c1 : IC50 was 34.9

Short answer for Cn1c(CNc2cccc(C(=O)NC3(c4cccnc4)CC3)c2)nnc1-c1ccncn1 : IC50 was 200

Short answer for Cc1nc(C(C)NC(=O)c2cccc(NCc3nnc(-c4ccncn4)n3C)c2)no1 (stereo not shown) : IC50 was 67

Short answer for Cn1cc(C(NC(=O)c2cccc(NCc3nnc(-c4ccncn4)n3C)c2)c2ccccc2)cn1 (stereo not shown) : IC50 was 41

====

# IC50 values compiled below
- Assayed Target: GRK2 (Homo sapiens)
- Construct: purchased SignalChem A14-10G
- Sequence (P25098 1-689): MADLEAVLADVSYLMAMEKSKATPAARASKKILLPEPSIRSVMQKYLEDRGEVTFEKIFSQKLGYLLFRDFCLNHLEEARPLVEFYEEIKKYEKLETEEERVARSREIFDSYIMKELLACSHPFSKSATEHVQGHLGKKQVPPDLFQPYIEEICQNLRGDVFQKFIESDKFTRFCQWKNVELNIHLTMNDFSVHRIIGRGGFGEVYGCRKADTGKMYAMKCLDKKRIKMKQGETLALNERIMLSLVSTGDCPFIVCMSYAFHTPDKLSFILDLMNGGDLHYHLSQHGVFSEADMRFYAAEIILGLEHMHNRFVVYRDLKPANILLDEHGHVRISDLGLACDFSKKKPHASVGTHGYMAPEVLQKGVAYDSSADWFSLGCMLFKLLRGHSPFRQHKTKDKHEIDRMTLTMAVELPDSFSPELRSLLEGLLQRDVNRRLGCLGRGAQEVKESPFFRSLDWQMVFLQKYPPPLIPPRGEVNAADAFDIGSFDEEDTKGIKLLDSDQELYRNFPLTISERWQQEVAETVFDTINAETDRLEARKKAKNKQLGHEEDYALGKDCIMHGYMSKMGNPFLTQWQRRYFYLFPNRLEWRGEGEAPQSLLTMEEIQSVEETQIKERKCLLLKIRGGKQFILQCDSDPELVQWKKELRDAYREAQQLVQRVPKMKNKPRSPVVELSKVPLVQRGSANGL
- Assay Protocol: ADPGlo GRK2 Inhibition Assay (Example 8)
- Format: biochemical
- Measurement Conditions: Enzyme Assay A, ADPGlo (Example 8); read-out: A: Enzymatic GRK2: IC50 (nM) (Example 8)
# number then unit; no other words

Short answer for Cc1cc(CNC(=O)c2cccc(NCc3nnc(-c4ccncn4)n3C)c2)nn1C : IC50 was 41 nM

Short answer for O=C(NC1CCCc2nccnc21)c1cccc(NCc2nnc(-c3ccncc3)[nH]2)c1 (stereo not drawn) : IC50 was 12 nM

Short answer for COc1cccc(C(C)NC(=O)c2cccc(NCc3nnc(-c4ccncn4)n3C)c2)c1 (stereo not drawn) [drawing 381] : IC50 was 12 nM

Short answer for Cn1c(CNc2cccc(C(=O)NCc3ccc(-n4ccnn4)cc3)c2)nnc1-c1ccncn1 [drawing 579] : IC50 was 9.5 nM

Short answer for Cn1c(CNc2cccc(C(=O)NCc3ccc4c(c3)CCN4)c2)nnc1-c1ccncn1 [drawing 571] : IC50 was 9.4 nM

Short answer for CC1Cc2cc(CNC(=O)c3cccc(NCc4nnc(-c5ccncn5)n4C)c3)ccc2O1 (stereo not drawn) [drawing 401] : IC50 was 22 nM

Short answer for COCC(NC(=O)c1cccc(NCc2nnc(-c3ccncn3)n2C)c1)c1ccccc1 (stereo not drawn) : IC50 was 36 nM

Short answer for CC(NC(=O)c1cccc(NCc2nnc(-c3ccncn3)n2C)c1)c1cnn(C)c1 (stereo not drawn) : IC50 was 17 nM

Short answer for Cc1ccnc(CNC(=O)c2cccc(NCc3nnc(-c4ccncn4)n3C)c2)c1 : IC50 was 430 nM

Short answer for CC(NC(=O)c1cccc(NCc2nnc(-c3ccncn3)n2C)c1)c1ccncc1F (stereo not drawn) : IC50 was 15 nM

Continuing:
Short answer for Cc1cccc([C@H](C)NC(=O)c2cccc(NCc3nnc(-c4ccncn4)n3C)c2)n1 : IC50 was 95 nM

Short answer for COc1ncccc1CNC(=O)c1cccc(NCc2nnc(-c3ccncc3)[nH]2)c1 [drawing 424] : IC50 was 12 nM

Short answer for Cn1c(CNc2cccc(C(=O)NCc3ccncc3Cl)c2)nnc1-c1ccncn1 [drawing 276] : IC50 was 9.1 nM

Short answer for Cn1nccc1CNC(=O)c1cccc(NCc2nnc(-c3ccncn3)n2C)c1 [drawing 608] : IC50 was 5.7 nM

Short answer for Cn1c(CNc2cccc(C(=O)NCc3cc(Cl)ccn3)c2)nnc1-c1ccncn1 : IC50 was 45 nM

Short answer for Cc1ncccc1CNC(=O)c1cccc(NCc2nnc(-c3ccncn3)n2C)c1 : IC50 was 16 nM

====

- Assayed Target: GRK2 (Homo sapiens, UniProt P25098)
- Construct: purchased SignalChem A14-10G
- Assay Protocol: ADPGlo GRK2 Inhibition Assay (Example 8)
- Assay type: biochemical
- Measurement Conditions: Enzyme Assay A, ADPGlo (Example 8); read-out: A: Enzymatic GRK2: IC50 (nM) (Example 8)
Measurement Label: log10 of IC50 (log10 of the value in nM)
All values: base-10 log of IC50 in nM.

Short answer for COc1cccc(F)c1C(C)NC(=O)c1cccc(NCc2nnc(-c3ccncn3)n2C)c1 (stereo not drawn) : log10 of IC50 was 1.43

Short answer for Cn1c(CNc2cccc(C(=O)NCc3ccc(S(C)(=O)=O)cn3)c2)nnc1-c1ccncn1 : log10 of IC50 was 2.38

Short answer for Cc1ccccc1C(CO)NC(=O)c1cccc(NCc2nnc(-c3ccncn3)n2C)c1 (stereo not drawn) : log10 of IC50 was 1.52

Short answer for Cn1c(CNc2cccc(C(=O)N[C@H]3COCc4ccccc43)c2)nnc1-c1ccncc1 : log10 of IC50 was 2.00

Short answer for CC(NC(=O)c1cccc(NCc2nnc(-c3ccncc3)[nH]2)c1)c1cnco1 (stereo not drawn) : log10 of IC50 was 1.38

Short answer for Cn1c(CNc2cccc(C(=O)NCc3ccc4nccn4c3)c2)nnc1-c1ccncn1 [drawing 611] : log10 of IC50 was 0.23

Short answer for Cc1cncc(CNC(=O)c2cccc(NCc3nnc(-c4ccncn4)n3C)c2)c1 : log10 of IC50 was 1.18

Short answer for CC1CC(NC(=O)c2cccc(NCc3nnc(-c4ccncc4)[nH]3)c2)c2ncnn21 (stereo not drawn) : log10 of IC50 was 1.57

Lab note: next molecule to report on.
Short answer for Cn1c(CNc2cccc(C(=O)NCc3ncccc3C(F)(F)F)c2)nnc1-c1ccncn1 : log10 of IC50 was 1.23

====

- Assayed Target: GRK2 (Homo sapiens, UniProt P25098)
- Construct: purchased SignalChem A14-10G
- Assay Protocol: GRK2 Inhibition Assay (TR-FRET, Example 7)
- Type: biochemical
- Measurement Conditions: Enzyme Assay B, TR-FRET (Example 7); read-out: B: Enzymatic GRK2: IC50 (nM) (Example 7)
# IC50 values compiled below
Your answer is read as nM, so omit the unit and give the number.

Short answer for O=C(NCc1cccc(F)c1)c1cccc(NCc2nnc(-c3ccncc3)[nH]2)c1 : IC50 was 6.1

Short answer for COc1cccc(OC)c1CNC(=O)c1cccc(NCc2nnc3n2CCOc2cnccc2-3)c1 : IC50 was 6.7

Continuing:
Short answer for O=C(NCc1cccc2c1OCC2)c1cccc(NCc2nnc(-c3ccncc3)[nH]2)c1 : IC50 was 2.9

Short answer for O=C(NCc1cccnc1C(F)(F)F)c1cccc(NCc2nnc3n2CCOc2cnccc2-3)c1 : IC50 was 3.5

Short answer for CCCn1c(CNc2cccc(C(=O)NCc3cccc4c3OCC4)c2)nnc1-c1ccncn1 : IC50 was 2

Short answer for COc1ncccc1CNC(=O)c1cccc(NCc2nnc(-c3ccncc3)n2C)c1 : IC50 was 15

Short answer for CCc1cnccc1CNC(=O)c1cccc(NCc2nnc(-c3ccncn3)n2CCCNC)c1 : IC50 was 94

Short answer for COc1ccc(CNC(=O)c2cccc(NCc3nnc4n3CCOc3cnccc3-4)c2)c(F)c1 : IC50 was 1.6

Short answer for Cn1c(CNc2cc(C(=O)NCc3cccnc3C(F)(F)F)ccn2)nnc1-c1ccncn1 : IC50 was 11

Short answer for Cn1c(CNc2cccc(C(=O)N[C@@H]3CCOc4c3cccc4C(F)(F)F)c2)nnc1-c1ccncn1 : IC50 was 3.8

Short answer for Cn1c(CNc2cccc(C(=O)NCc3cnc4ccccn34)c2)nnc1-c1ccncn1 : IC50 was 3.2

Short answer for CCc1cnccc1CNC(=O)c1cccc(NCc2nnc(-c3ccncn3)n2CCO)c1 : IC50 was 0.82

Short answer for Cc1cc2c(cc1CNC(=O)c1cccc(NCc3nnc(-c4ccncn4)n3C)c1)OCCO2 [drawing 588] : IC50 was 3.3

Short answer for CC(NC(=O)c1cccc(NCc2nnc(-c3ccncn3)n2C)c1)c1c[nH]cn1 (stereo not shown) [drawing 599] : IC50 was 60

Short answer for COc1ncccc1CNC(=O)c1cccc(NCc2nnc(-c3ccncn3)n2CCO)c1 : IC50 was 2.4

Short answer for Cc1cccc2ncc(CNC(=O)c3cccc(NCc4nnc(-c5ccncn5)n4CCO)c3)n12 : IC50 was 1

Short answer for C#Cc1ccc(OS(=O)(=O)F)c(CNC(=O)c2cccc(NCc3nnc(-c4ccncc4)[nH]3)c2)c1 : IC50 was 13

Data origin, for the record: patent US20230009608A1
